studySystem: Bifunctional 3'-5' exonuclease/ATP-dependent helicase WRN (Homo sapiens) (UniProt Q14191)
Sequence (Q14191 whole entry, looked up): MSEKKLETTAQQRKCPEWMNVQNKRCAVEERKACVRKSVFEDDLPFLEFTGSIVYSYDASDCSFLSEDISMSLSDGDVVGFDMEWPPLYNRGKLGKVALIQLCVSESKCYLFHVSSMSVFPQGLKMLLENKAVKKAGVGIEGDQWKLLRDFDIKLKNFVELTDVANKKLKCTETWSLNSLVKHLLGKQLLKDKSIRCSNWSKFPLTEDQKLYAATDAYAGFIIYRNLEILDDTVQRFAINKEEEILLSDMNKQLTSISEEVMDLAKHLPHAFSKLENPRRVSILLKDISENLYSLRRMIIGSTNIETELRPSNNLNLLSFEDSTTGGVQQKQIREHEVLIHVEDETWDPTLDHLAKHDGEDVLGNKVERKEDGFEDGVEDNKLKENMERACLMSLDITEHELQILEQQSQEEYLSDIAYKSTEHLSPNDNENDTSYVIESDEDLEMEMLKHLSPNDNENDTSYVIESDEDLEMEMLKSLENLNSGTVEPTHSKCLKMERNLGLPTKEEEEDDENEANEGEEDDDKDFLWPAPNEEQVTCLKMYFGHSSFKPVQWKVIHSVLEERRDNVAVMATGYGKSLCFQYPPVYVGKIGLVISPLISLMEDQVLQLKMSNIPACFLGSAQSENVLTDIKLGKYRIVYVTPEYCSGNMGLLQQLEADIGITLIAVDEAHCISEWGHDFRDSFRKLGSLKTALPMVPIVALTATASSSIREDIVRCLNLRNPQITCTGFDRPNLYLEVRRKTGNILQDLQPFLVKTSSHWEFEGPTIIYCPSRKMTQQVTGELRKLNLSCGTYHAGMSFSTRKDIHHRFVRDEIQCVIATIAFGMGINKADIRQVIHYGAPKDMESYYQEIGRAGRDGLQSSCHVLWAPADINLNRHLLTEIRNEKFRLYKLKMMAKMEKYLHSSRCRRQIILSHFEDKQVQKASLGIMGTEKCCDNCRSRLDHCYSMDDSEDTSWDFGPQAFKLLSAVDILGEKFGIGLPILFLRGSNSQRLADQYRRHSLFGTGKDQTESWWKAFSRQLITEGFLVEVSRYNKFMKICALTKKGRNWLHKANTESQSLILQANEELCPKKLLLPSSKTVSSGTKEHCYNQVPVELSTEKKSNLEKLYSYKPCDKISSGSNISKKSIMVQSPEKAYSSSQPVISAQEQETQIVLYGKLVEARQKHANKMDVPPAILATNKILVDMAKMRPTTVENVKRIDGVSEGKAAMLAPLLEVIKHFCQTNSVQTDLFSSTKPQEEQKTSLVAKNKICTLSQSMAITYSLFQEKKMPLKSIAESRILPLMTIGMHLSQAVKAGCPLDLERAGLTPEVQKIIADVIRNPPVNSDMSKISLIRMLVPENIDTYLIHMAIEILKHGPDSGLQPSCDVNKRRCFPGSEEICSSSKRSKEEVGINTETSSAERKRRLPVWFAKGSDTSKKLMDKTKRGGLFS
assayText: qHTS for Inhibitors of WRN Helicase; further: nearly all actives have a fitted effect of over 55% in size
appliedConditions: WRN helicase unwinding, fluorescent forked duplex, kinetic; series mostly up to 114 µM
The whole screen tested about 360,000 compounds, of which about 1,700 (0.47%) were called active. About 2% were inconclusive and are not listed. The call rests on the fitted dose curve; in most records, active means well fitted inhibition curve with a large enough effect; inconclusive means small, poorly fitted or top-dose-only effect; inactive means no such curve, though single readings can be large or run the other way. The list comes from a sample in which actives are over-represented; it also holds close analogues and randomly drawn compounds.
Outcomes: t for active, f for inactive

{"compound": "CCC1(c2ccccc2)NC(=O)N(CC(=O)Nc2ccccc2C(=O)NC2CCCC2)C1=O (configuration not stated)", "label": "f"}
{"compound": "Cc1c(CC(=O)N2CCN(C(=O)C3COc4ccccc4O3)CC2)c(=O)oc2c(O)c(O)ccc12 (configuration not stated)", "label": "t"}
{"compound": "CC(=O)Nc1nc(N(C)C)nc(N(C)C)n1", "label": "f"}
{"compound": "CCC(C)CN1C(=O)CSCC1(C)C(=O)NCc1ccccc1 (configuration not stated)", "label": "f"}
{"compound": "O=S(=O)(Nc1ccc(O)c2ccccc12)c1ccc(OC(F)(F)F)cc1", "label": "t"}
{"compound": "O=C1CC2(CCCCC2)Oc2ccc(OCC(=O)N3CCOCC3)cc21", "label": "f"}
{"compound": "CC(NC(=O)C(=O)NN=C1CCC(C(C)(C)C)CC1)c1ccccc1 (configuration not stated)", "label": "f"}
{"compound": "N#Cc1c(C(F)(F)F)cc(-c2cccs2)nc1N1CCCCC1", "label": "f"}
{"compound": "O=S(=O)(Nc1ccc(OC(F)(F)F)cc1)c1cccc2nonc12", "label": "f"}
{"compound": "O=C(Nc1ccccc1Cl)/C(Cl)=C(\\Cl)S(=O)c1ccccc1 (configuration not stated)", "label": "t"}
{"compound": "N#Cc1c(N2CCCCC2)nc(N)c2c(N)nc(SCC(=O)O)cc12", "label": "t"}
{"compound": "O=C(O)CSc1ccc(S(=O)(=O)N2CCCC2)cn1", "label": "f"}
{"compound": "O=C(Nc1ccccc1Cl)c1ccccc1S(=O)(=O)c1ccccc1[N+](=O)[O-]", "label": "f"}
{"compound": "CCC1OC(C2CC2)CC2=C1C(=O)OC(C)(C)O2 (configuration not stated)", "label": "f"}
{"compound": "Cc1cc2nc3n(c2cc1C)CC1CC(C(=O)NCCC(C)C)N(C)C31 (configuration not stated)", "label": "f"}
{"compound": "COc1ccc(C(O)c2nc(-c3ccc(OC)nc3)cs2)cc1 (configuration not stated)", "label": "f"}
{"compound": "COc1ccc(CS(=O)/C(Cl)=C(/Cl)C(=O)Nc2ccc(OC)nc2)cc1 (configuration not stated)", "label": "t"}
{"compound": "Cc1ccc2nc(-c3ccncc3)cc(C(=O)Nc3ccc(OC(F)F)cc3)c2c1", "label": "t"}
{"compound": "COC(=O)[C@]1(Cc2ccccc2)N[C@H](CN(C)S(=O)(=O)c2ccc(OC(F)(F)F)cc2)[C@@H]2C(=O)N(C)C(=O)[C@@H]21", "label": "f"}
{"compound": "CC1CCCC(NC(=O)c2cc(-c3ccncc3)nc3ccccc23)C1C (configuration not stated)", "label": "f"}
{"compound": "O=C(CSC(=S)N1CCCCC1)c1c(F)cccc1F", "label": "f"}
{"compound": "CSc1nnc(C2CCCN(CC(=O)Nc3ccccc3N3CCOCC3)C2)n1C(C)C (configuration not stated)", "label": "f"}

----------
The following molecules are listed with their measured activity change, negative = inhibition values.
studySystem: Bifunctional 3'-5' exonuclease/ATP-dependent helicase WRN (Homo sapiens) (UniProt Q14191)
assayText: qHTS for Inhibitors of WRN Helicase; further: nearly all actives have a fitted effect of over 55% in size; on activity change, negative = inhibition: on the % scale 0 is the no-effect control and ±100 the full control effect
appliedConditions: WRN helicase unwinding, fluorescent forked duplex, kinetic; series mostly up to 114 µM
Text: Inhibition of DNA repair is proposed as a strategy for combating cancer. […] We will employ an optimized high-throughput screening assay that utilizes a fluorescence intensity modulation scheme with a fluorophore and quencher positioned near one another within a duplex deoxyoligonucleotide that contains a single forked structure. […]
Hit rate of the full screen: of about 360,000 compounds, about 1,700 (0.47%) were called active. Roughly 2% stayed inconclusive and do not appear here. The entries come from a sample that favours actives as a whole.

{"molecule": "Cc1cc(C)n(CC(O)COc2ccc(C(C)(C)C)cc2)n1 (centres undefined)", "activity change, negative = inhibition": "2.02% [at 11.6 µM] (inactive)"}
{"molecule": "O=C(CN1C(=O)c2cccc3cccc1c23)Nc1ccccc1", "activity change, negative = inhibition": "-0.0297% [at 11.6 µM] (inactive)"}
{"molecule": "C/C=C\\C=C\\C(=O)N1CC2(CC(c3cccc(NC(=O)/C(C)=C\\C)c3)=NO2)C[C@H]1C(N)=O (some centres undefined)", "activity change, negative = inhibition": "-13.3% [at 11.6 µM] (inactive)"}
{"molecule": "Cc1c(CCC(=O)O)c(=O)oc2c(C)c(OCc3ccccc3Cl)ccc12", "activity change, negative = inhibition": "-22.9% [at 11.6 µM] (inactive)"}

----------
studySystem: Bifunctional 3'-5' exonuclease/ATP-dependent helicase WRN (Homo sapiens) (UniProt Q14191)
assayText: qHTS for Inhibitors of WRN Helicase; further: nearly all actives have a fitted effect of over 55% in size
appliedConditions: WRN helicase unwinding, fluorescent forked duplex, kinetic; series mostly up to 114 µM
Hit rate of the full screen: of about 360,000 compounds, about 1,700 (0.47%) were called active. Another 2% or so got no clear call; they are omitted. Calls come from the whole dose curve; as a rule, active = well fitted inhibition curve with a large enough effect; inconclusive = small, poorly fitted or top-dose-only effect; inactive = no such curve, though single readings can be large or run the other way. Many of the other results were omitted from the sample, so actives are more common in it than they were.
Classes used: 1 (yes) = active, 0 (no) = inactive

{"smilesNotation": "COc1cccc(NCCC(=O)c2cccc([N+](=O)[O-])c2)c1", "studySystem": "Bifunctional 3'-5' exonuclease/ATP-dependent helicase WRN (Homo sapiens) (UniProt Q14191)", "label": "0 (no)"}
{"smilesNotation": "COc1cccc(/C=N/NC(=O)c2[nH]nc3c2CCc2ccccc2-3)c1O", "studySystem": "Bifunctional 3'-5' exonuclease/ATP-dependent helicase WRN (Homo sapiens) (UniProt Q14191)", "label": "1 (yes)"}
{"smilesNotation": "O=C1C=CC(=O)N1c1ccc(N2CCCCC2)cc1", "studySystem": "Bifunctional 3'-5' exonuclease/ATP-dependent helicase WRN (Homo sapiens) (UniProt Q14191)", "label": "1 (yes)"}
{"smilesNotation": "Nc1nc2ncccn2c1-c1ccccc1", "studySystem": "Bifunctional 3'-5' exonuclease/ATP-dependent helicase WRN (Homo sapiens) (UniProt Q14191)", "label": "0 (no)"}
{"smilesNotation": "O=C(CC[C@H]1O[C@@H](n2ccc(=O)[nH]c2=O)[C@H](O)[C@@H]1O)N[C@H](Cc1ccccc1)C(=O)NCCCN1CCCC1=O", "studySystem": "Bifunctional 3'-5' exonuclease/ATP-dependent helicase WRN (Homo sapiens) (UniProt Q14191)", "label": "0 (no)"}
{"smilesNotation": "Cc1ccc(C(=O)NNC(=O)OC(C)(C)C)c(Cl)c1", "studySystem": "Bifunctional 3'-5' exonuclease/ATP-dependent helicase WRN (Homo sapiens) (UniProt Q14191)", "label": "0 (no)"}
{"smilesNotation": "COc1ccc(OC)c(/C=N/NC(=O)c2ccc[n+](CC(=O)c3ccccc3)c2)c1", "studySystem": "Bifunctional 3'-5' exonuclease/ATP-dependent helicase WRN (Homo sapiens) (UniProt Q14191)", "label": "0 (no)"}
{"smilesNotation": "COc1cc(/C=N/NC(=O)c2cccnc2)ccc1OC(=O)c1cccc(Br)c1", "studySystem": "Bifunctional 3'-5' exonuclease/ATP-dependent helicase WRN (Homo sapiens) (UniProt Q14191)", "label": "0 (no)"}
{"smilesNotation": "O=C(Nc1cccc([N+](=O)[O-])c1)N1CCc2ccccc2C1", "studySystem": "Bifunctional 3'-5' exonuclease/ATP-dependent helicase WRN (Homo sapiens) (UniProt Q14191)", "label": "0 (no)"}
{"smilesNotation": "O=c1ccc2c(-c3ccccc3S(=O)(=O)O)c3ccc(O)c(O)c3oc-2c1O", "studySystem": "Bifunctional 3'-5' exonuclease/ATP-dependent helicase WRN (Homo sapiens) (UniProt Q14191)", "label": "1 (yes)"}

----------
studySystem: Bifunctional 3'-5' exonuclease/ATP-dependent helicase WRN (Homo sapiens) (UniProt Q14191)
assayText: qHTS for Inhibitors of WRN Helicase; further: nearly all actives have a fitted effect of over 55% in size; further: potency means the concentration at half of the fitted maximal effect
appliedConditions: WRN helicase unwinding, fluorescent forked duplex, kinetic; series mostly up to 114 µM
Hit rate of the full screen: of about 360,000 compounds, about 1,700 (0.47%) were called active. Another 2% or so got no clear call; they are omitted. The sample as a whole holds a higher share of actives than the screen did.

{"compound": "FC(F)(F)C1CCCN(c2nsc3ccccc23)C1 (stereo not given)", "studySystem": "Bifunctional 3'-5' exonuclease/ATP-dependent helicase WRN (Homo sapiens) (UniProt Q14191)", "Potency": "22.4 µM (active)"}
{"compound": "CCOC(=O)c1c(NC(=O)CSc2nnc(CN3CCOCC3)n2C)sc2c1CCCC2", "studySystem": "Bifunctional 3'-5' exonuclease/ATP-dependent helicase WRN (Homo sapiens) (UniProt Q14191)", "Potency": "inactive"}
{"compound": "S=c1[nH]nc(-c2cc(-c3ccccc3)n[nH]2)n1/N=C/c1c2ccccc2cc2ccccc12", "studySystem": "Bifunctional 3'-5' exonuclease/ATP-dependent helicase WRN (Homo sapiens) (UniProt Q14191)", "Potency": "50.1 µM (active)"}
{"compound": "NC(=O)c1c(NC(=O)CSc2nnc(-c3ccco3)n2N)sc2c1CCCC2", "studySystem": "Bifunctional 3'-5' exonuclease/ATP-dependent helicase WRN (Homo sapiens) (UniProt Q14191)", "Potency": "50.1 µM (active)"}
{"compound": "C/C=C(/C)C(=O)Nc1cccc(C2=NOC3(C2)C[C@@H](C(N)=O)N(C(=O)C2(C)CC2)C3)c1 (stereo not given in full)", "studySystem": "Bifunctional 3'-5' exonuclease/ATP-dependent helicase WRN (Homo sapiens) (UniProt Q14191)", "Potency": "inactive"}
{"compound": "Nn1c(SCC(=O)Nc2nccs2)nnc1-c1ccco1", "studySystem": "Bifunctional 3'-5' exonuclease/ATP-dependent helicase WRN (Homo sapiens) (UniProt Q14191)", "Potency": "inactive"}
{"compound": "CCCCN(C(=O)C(CCSC)N1C(=O)c2ccccc2C1=O)c1c(N)n(CCC)c(=O)[nH]c1=O (stereo not given)", "studySystem": "Bifunctional 3'-5' exonuclease/ATP-dependent helicase WRN (Homo sapiens) (UniProt Q14191)", "Potency": "inactive"}
{"compound": "Cc1sc2nc(CSCC(=O)Nc3c(Cl)cccc3Cl)[nH]c(=O)c2c1C", "studySystem": "Bifunctional 3'-5' exonuclease/ATP-dependent helicase WRN (Homo sapiens) (UniProt Q14191)", "Potency": "inactive"}
{"compound": "C=CCN1CCN(c2ccncc2S(=O)(=O)N2CCN(C)CC2)CC1", "studySystem": "Bifunctional 3'-5' exonuclease/ATP-dependent helicase WRN (Homo sapiens) (UniProt Q14191)", "Potency": "inactive"}
{"compound": "CCOC(=O)c1sc2nc(CSCC(=O)OCc3ccc(C(=O)OC)o3)[nH]c(=O)c2c1C", "studySystem": "Bifunctional 3'-5' exonuclease/ATP-dependent helicase WRN (Homo sapiens) (UniProt Q14191)", "Potency": "inactive"}
